tested on: A673/TR/shEF; assay: cell viability (LOESS-normalised, relative to median of negative controls) (log2 ratio); higher = more viable cells (less compound effect), active = hit call of the paper (over 3 MAD below the median); details: 2.5 µM; library screen: screen2; EWS-FLI1 expression: high (no doxycycline); treatment time: 72 h
Out of some 3,200 compounds screened, about 300 (9.4%) showed activity. For the sample, actives were picked, then their nearest neighbours and some compounds at random.
Hi there, use one of these labels in your reply, thanks! active, inactive

The following molecules have reported results that may help.
// return assay outcome for COc1cc(C(=O)OCCCN2CCCN(CCCOC(=O)c3cc(OC)c(OC)c(OC)c3)CC2)cc(OC)c1OC inactive

What is the recorded call for this molecule in the test? O=C(O)c1cc2cc(F)ccc2[nH]1 inactive

Hi, do you know how Cc1c(OCC(F)(F)F)ccnc1C[S+]([O-])c1nc2ccccc2[nH]1 (stereo unspecified) came out in this test? inactive

How was CCN(CC)CCCC(C)Nc1ccnc2cc(Cl)ccc12 (stereo unspecified) classified in this test? inactive

Dear all, I need the recorded test outcome for N.N.N.N.N.O.[Ru+2] , thank you. inactive

Recorded test call requested for CCc1cn([C@H]2C[C@H](O)[C@@H](CO)O2)c(=O)[nH]c1=O inactive

New cases:
Identify the outcome logged in this assay for the molecule shown: CCCCCCCCCCCCCCCC(=O)NCC(COP(=O)([O-])OCC[N+](C)(C)C)OC (stereo unspecified) inactive

Dear all, I need the recorded test outcome for CCN(CC)CCNC(=O)c1ccc(N)cc1 , thank you. inactive

I'd appreciate the recorded outcome for CCCCCN(CCCCC)C(=O)C(CCC(=O)O)NC(=O)c1ccc(Cl)c(Cl)c1 (stereo unspecified) from this test. inactive

Which result was noted for this molecule in the test: CC(C)(C)OC(=O)C(C)(N)c1ccc(Cl)cc1 (stereo unspecified) inactive

Entry CN(C)CCCN1c2ccccc2Sc2ccc(Cl)cc21 : call = ? inactive

Could you check what this test reported for O=C(CCCCCCC(=O)Nc1ccccc1)NO ? inactive

Please state the recorded outcome for this molecule: Cc1cn([C@H]2C[C@H](N=[N+]=[N-])[C@@H](CO)O2)c(=O)[nH]c1=O inactive

Which outcome was entered for the molecule CCC(C)[C@H]1O[C@]2(CC[C@@H]1C)CC1C[C@@H](C/C=C(\C)[C@@H](O[C@H]3C[C@H](OC)[C@@H](OC4C[C@H](OC)[C@@H](O)[C@H](C)O4)[C@H](C)O3)[C@@H](C)/C=C/C=C3\CO[C@@H]4[C@H](O)C(C)=C[C@@H](C(=O)O1)[C@]34O)O2.CO[C@H]1CC(O[C@H]2[C@H](C)O[C@@H](O[C@@H]3/C(C)=C/C[C@@H]4CC(C[C@]5(CC[C@H](C)[C@@H](C(C)C)O5)O4)OC(=O)[C@@H]4C=C(C)[C@@H](O)[C@H]5OC/C(=C\C=C\[C@@H]3C)[C@]54O)C[C@@H]2OC)O[C@@H](C)[C@@H]1O (stereo partly specified) in this test? active

Tell me the assay call for O=c1[nH]c(=O)n([C@H]2C[C@H](O)[C@@H](CO)O2)cc1Br please. inactive

So what was the verdict on Nc1nc(N)c2nc(CNc3ccc(C(=O)N[C@@H](CCC(=O)O)C(=O)O)cc3)cnc2n1 in this test? inactive

Record lookup: outcome of this test for COc1cc2ncc(-c3ccccc3)nc2cc1OC ? inactive

Assay result, entry O=S(=O)(c1cccc2c(Cl)cccc12)N1CCCNCC1 — outcome? inactive

What did the test return for NC(CCC(=O)NCS(=O)(=O)O)C(=O)O (stereo unspecified) ? inactive

State the result this test recorded for CN1/C(=C(\O)Nc2ccccn2)C(=O)c2ccccc2S1(=O)=O . inactive

For CN(Cc1cnc2nc(N)nc(N)c2n1)c1ccc(C(=O)N[C@H](CCC(=O)O)C(=O)O)cc1 , which call appears in the assay record? inactive

Any idea what this test logged for CN1C[C@H](O)[C@@H](O)[C@H](O)[C@H]1CO ? inactive

Assay result, entry O=c1[nH]c(=O)n([C@H]2C[C@H](O)[C@@H](CO)O2)cc1/C=C/Br — outcome? inactive

Could you check what this test reported for C=C(O)CCC/C=C\C[C@@H]1[C@@H](/C=C/[C@H](O)C2Cc3ccccc3C2)[C@@H](F)C[C@@H]1O ? inactive

Assay result, entry CCN(CC)CCNC(=O)c1cc(S(C)(=O)=O)ccc1OC — outcome? inactive

Hey, what did the test say about CC(C)(C)c1onc(OCP(=O)(O)O)c1CC(N)C(=O)O (stereo unspecified) ? inactive

What did this assay record as the result for CC(C)NC[C@H](O)c1ccc(O)c(O)c1 ? inactive

Which outcome did this test record for the molecule CCCCCCCCCCCCC/C=C/[C@@H](O)[C@@H](N)CO ? inactive

###

system: A673/TR/shEF; experiment: cell viability (LOESS-normalised, relative to median of negative controls) (log2 ratio); higher = more viable cells (less compound effect), active = hit call of the paper (over 3 MAD below the median); conditions: 25 µM; library screen: screen3; EWS-FLI1 expression: high (no doxycycline); treatment time: 72 h
Screen size: about 3,200 compounds; about 300 (9.4%) showed activity. The list comes from a sample in which actives are over-represented; it also holds close analogues and randomly drawn compounds.
measurement-name: cell viability (log2)
Lab note: jot down the number only; don't add units.

These solved cases illustrate the format of a correct answer.
Hello, I am looking for reported cell viability (log2) with A673/TR/shEF for Clc1ccc(COC(Cn2ccnc2)c2ccc(Cl)cc2Cl)cc1 (stereo not given) . Could you help? -0.429

Form: Entry = Nc1ccn([C@@H]2O[C@H](CO)[C@@H](O)[C@@H]2O)c(=O)n1 | System = A673/TR/shEF | cell viability (log2) = ____ -2.24

Request body: readout cell viability (log2), system A673/TR/shEF, query Nc1ncn([C@H]2C[C@H](O)[C@@H](CO)O2)c(=O)n1 . Return the value. -0.117

Next:
Notebook entry, A673/TR/shEF assay: cell viability (log2) of CCCCC(=O)N(Cc1ccc(-c2ccccc2-c2nn[nH]n2)cc1)[C@H](C(=O)O)C(C)C = ? 0.137

A673/TR/shEF / cell viability (log2) / COc1ccc(-c2nc3ccc(C4=NNC(=O)CC4C)cc3[nH]2)cc1 (stereo not given) : value? -0.172

What value of cell viability (log2) on A673/TR/shEF does COCCn1c2c([n+](Cc3cnccn3)c1C)C(=O)c1ccccc1C2=O have? -4.31

Record OCC1OC(O)C(O)C(O)C1O (stereo not given) : what is its cell viability (log2) with A673/TR/shEF? 0.168

What measured cell viability (log2) is associated with CCOc1cc2ncc(C#N)c(Nc3ccc(OCc4ccccn4)c(Cl)c3)c2cc1NC(=O)/C=C/CN(C)C on A673/TR/shEF? -0.035

For A673/TR/shEF, provide cell viability (log2) of Cc1nnc(C(C)C)n1C1C[C@H]2CC[C@@H](C1)N2CC[C@H](NC(=O)C1CCC(F)(F)CC1)c1ccccc1 (stereo not given in full) please. 0.0767

Lab note: need cell viability (log2) for NC(=O)c1ncn([C@@H]2O[C@H](CO)[C@@H](O)[C@H]2O)n1 on A673/TR/shEF, anyone have it? 0.13

###

system: A673/TR/shEF; experiment: cell viability (LOESS-normalised, relative to median of negative controls) (log2 ratio); higher = more viable cells (less compound effect), active = hit call of the paper (over 3 MAD below the median); conditions: 0.103 µM; library screen: screen3; EWS-FLI1 expression: low (doxycycline-induced shRNA knockdown); treatment time: 72 h
The whole screen tested about 3,200 compounds, of which about 300 (9.4%) showed activity. This excerpt belongs to a sample that is enriched for actives.
Field: label. Allowed values: class 1 (cell viability (log2) < 0.08) or class 0 (cell viability (log2) >= 0.08).

A selection of reference data follows.
Given the entry CCC(C)(C)C(=O)O[C@H]1C[C@@H](C)C=C2C=C[C@H](C)[C@H](CC[C@@H]3C[C@@H](O)CC(=O)O3)[C@H]21 , would its reported cell viability (log2) be below 0.08? class 1

Decide: cell viability (log2) of CCCS(=O)(=O)Nc1ccc(F)c(C(=O)c2c[nH]c3ncc(-c4ccc(Cl)cc4)cc23)c1F strictly below 0.08? class 1

Would you kindly verify if cell viability (log2) of Cc1nc(Nc2ncc(C(=O)Nc3c(C)cccc3Cl)s2)cc(N2CCN(CCO)CC2)n1 is strictly less than 0.08? class 1

Now examine the next entry.
Hi there! Is cell viability (log2) for CN1/C(=C(\O)Nc2ccccn2)C(=O)c2ccccc2S1(=O)=O below 0.08, do you know? class 0

###

test system: A673/TR/shEF; assay: cell viability (LOESS-normalised, relative to median of negative controls) (log2 ratio); higher = more viable cells (less compound effect), active = hit call of the paper (over 3 MAD below the median); details: 25 µM; library screen: screen1; EWS-FLI1 expression: high (no doxycycline); treatment time: 72 h
About 300 (9.4%) of roughly 3,200 compounds showed activity. What follows is part of a selection rich in actives, with near analogues and random picks from the rest.
Use one of these outcomes when replying: active, inactive

Completed entries (count: 3):
How was Cc1ccc(NC(=O)c2cccc(N(C)C)c2)cc1NC(=O)c1ccc(O)cc1 classified in this test? active

Assay result, entry N#C/C(=C\c1ccc(O)c(O)c1)C(=O)Nc1ccccc1 — outcome? active

Called result for c1ccc([C@H]2CN3CCSC3=N2)cc1 active

Then this compound:
I would be grateful if you could indicate the recorded call for COc1c(C=O)c(O)cc2c1C(=O)c1ccccc1C2=O . inactive
